# study.target: SARS-CoV-2 spike RBD (BEI NR-53800) (SARS-CoV-2 Wuhan-Hu-1, UniProt P0DTC2 319-541)
# protocol.description: fluorescence binding, carbon-dot aptamer on Ni-NTA@RBD
observation.type: pKd
API: returns pKd as number; meaning -log10 of concentration in mol/L.

Value of measured pKd for the entry aptamer R (Apt@R2) (ssDNA) DNA: GGTATTGAGGGTCGCATCGTTACTGGACCAAACAGCACAAAGGACGCCCATAAACCCGGATGGCTCTAACTCTCCTCT : 6.90
